# System: IL-13 induced pSTAT6 in lung tissue
# Test summary: Murine model of IL-13 induced pSTAT6 induction in lung tissue
# Assay type: in vivo
# Cond: mouse lung; 0.5 mg/mL, 50 μL oral aspiration; IL-13 challenge 4 h after dosing, lungs collected 1 h later; read-out: pSTAT6 inhibition Assay 5
# Method: Il-13 is an important cytokine underlying the pathophysiology of asthma (Kudlacz et al. Eur. J. Pharmacol, 2008, 582, 154-161). […] In the described model, a dose of IL-13 was delivered locally into the lungs of mice to induce the phosphorylation of STAT6 (pSTAT6) which is then measured as the endpoint. Adult balb/c mice from Harlan were used in the assay. […] Animals were placed in lateral recumbency post dose and monitored for full recovery from anesthesia before being returned to their home cage. […]
Known inhibition in vivo at 500 µg/mL of a selection of compounds

{"columns": ["Compound", "inhibition in vivo at 500 µg/mL"],
 "data": [
  ["CCc1cc(O)c(F)cc1-c1ccc2c(-c3nc4c([nH]3)CCN(C3CN(C)C3)C4)n[nH]c2c1 [Example 1]", "> 65%"],
  ["CCc1cc(O)c(F)cc1-c1ccc2c(-c3nc4c([nH]3)CCN(CC(F)CN(C)C)C4)n[nH]c2c1 (stereo not shown) [Example 12]", "33 to 50%"],
  ["CCc1cc(O)c(F)cc1-c1ccc2c(-c3nc4c([nH]3)CCN(C3CN(C(C)C)C3)C4)n[nH]c2c1 [Example 3]", "> 65%"]
]}

For the next question, use this compound.
Task item: Need inhibition in vivo at 500 µg/mL of CCc1cc(O)c(F)cc1-c1ccc2c(-c3nc4c([nH]3)CCN(C3CN(C(C)CC)C3)C4)n[nH]c2c1 (stereo not shown) [Example 4] , thanks.
Reply: > 65%

----------
Entries below carry reported Ki on Tyk2 (Homo sapiens (Human)).
Sequence (P29597 whole entry): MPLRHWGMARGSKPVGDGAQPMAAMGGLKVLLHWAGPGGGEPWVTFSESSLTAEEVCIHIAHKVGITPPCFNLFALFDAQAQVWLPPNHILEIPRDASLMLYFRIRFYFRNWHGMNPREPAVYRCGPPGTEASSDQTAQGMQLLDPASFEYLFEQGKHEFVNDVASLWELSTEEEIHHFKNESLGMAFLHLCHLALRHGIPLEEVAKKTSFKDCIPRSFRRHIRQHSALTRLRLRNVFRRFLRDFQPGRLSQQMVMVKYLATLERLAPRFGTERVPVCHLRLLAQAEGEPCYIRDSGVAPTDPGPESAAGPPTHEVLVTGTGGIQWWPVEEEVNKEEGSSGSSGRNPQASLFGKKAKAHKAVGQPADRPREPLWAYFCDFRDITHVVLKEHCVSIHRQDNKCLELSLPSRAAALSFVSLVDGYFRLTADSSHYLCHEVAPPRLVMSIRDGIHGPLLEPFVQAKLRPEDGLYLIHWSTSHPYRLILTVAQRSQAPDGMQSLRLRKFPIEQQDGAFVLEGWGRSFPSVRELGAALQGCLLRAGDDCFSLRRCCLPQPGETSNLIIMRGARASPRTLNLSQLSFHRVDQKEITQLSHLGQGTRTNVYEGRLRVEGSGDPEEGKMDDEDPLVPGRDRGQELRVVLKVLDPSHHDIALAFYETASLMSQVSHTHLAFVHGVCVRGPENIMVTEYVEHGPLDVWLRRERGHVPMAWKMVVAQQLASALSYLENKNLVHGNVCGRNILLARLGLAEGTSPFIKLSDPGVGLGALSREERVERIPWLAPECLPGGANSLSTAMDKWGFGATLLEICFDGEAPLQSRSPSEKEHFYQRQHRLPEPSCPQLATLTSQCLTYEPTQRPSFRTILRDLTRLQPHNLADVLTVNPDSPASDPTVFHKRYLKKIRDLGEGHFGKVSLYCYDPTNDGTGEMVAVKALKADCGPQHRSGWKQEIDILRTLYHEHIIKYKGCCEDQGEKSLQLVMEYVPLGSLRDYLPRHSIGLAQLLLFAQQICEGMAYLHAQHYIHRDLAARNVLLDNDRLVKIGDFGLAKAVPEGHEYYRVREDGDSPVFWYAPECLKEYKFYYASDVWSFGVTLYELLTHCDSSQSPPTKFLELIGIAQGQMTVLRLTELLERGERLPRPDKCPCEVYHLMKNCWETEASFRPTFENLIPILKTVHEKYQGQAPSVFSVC

{"columns": ["Compound", "Ki"],
 "data": [
  ["CCc1cc(O)c(F)cc1-c1ccc2c(-c3nc4c([nH]3)CCN(CCN3CCC[C@@H]3C)C4)n[nH]c2c1 [Example 15]", "0.316 to 1 nM"],
  ["CCc1cc(O)c(F)cc1-c1ccc2c(-c3nc4c([nH]3)CCN(C3CN(C(C)C)C3)C4)n[nH]c2c1 [Example 3]", "0.1 to 1 nM"]
]}

Next compound, please.
Task item: Can you share its Ki? I mean this compound: CCc1cc(O)c(F)cc1-c1ccc2c(-c3nc4c([nH]3)CCN(CCN(C)CC)C4)n[nH]c2c1 [Example 9]
Reply: 0.316 to 1 nM
